tested on: NCI/ADR-RES ovarian; assay: NCI-60 one-dose screen, 48 h; settings: 10 µM
The panel holds about 83,000 compounds, 20% with a hit somewhere; the sample as a whole holds those more often. The source made the active and inactive calls. The calls were made as follows: active = growth percent below 10; inactive = the rest.
Reply using exactly one outcome from yes (1) (active), no (0) (inactive)

In this assay, the call recorded for COc1cc(C(=O)/C=C/c2cc(-c3cc(OC)c(OC)c(OC)c3)n[nH]2)cc(OC)c1OC was what?
no (0)

Hello, I am checking results. What call was entered for CC/C(C)=C(\C)C(=O)O ?
no (0)

Can you look up the reported call for CCN(CC)CCOc1nc2ccc(OC)cc2c2c1-c1ccc(OC)cc1C2=O for me?
yes (1)

Query: recorded result category for O=[N+]([O-])c1ccc(Oc2cccnc2)c([N+](=O)[O-])c1 in this test
no (0)

Outcome logged for CCN1CCC2(CC1)OC(c1ccccc1)C(c1ccccc1)O2 (stereo unspecified) in this assay:
no (0)

In this assay, the call recorded for Clc1cccc(-c2nc(-c3cccs3)no2)c1 was what?
no (0)

Name the outcome recorded for Clc1ccc(/C=C2\CCCC3=C2N=C2SC=NN2C3c2ccc(Cl)cc2)cc1 (stereo unspecified) in the assay.
no (0)

Dear all, I need the recorded test outcome for CCCCOc1ccc(NC(=O)Nc2nnc(C)s2)cc1 , thank you.
no (0)

Called result for CCOC(=O)C1(CC(C)C)CCOC1=O (stereo unspecified)
no (0)

In this assay, the call recorded for CC1(O)CCC2CC3OC3(C)CCC3OC3(C)CCC1C2(C)C (stereo unspecified) was what?
no (0)

Recorded test outcome, item COc1cc(-c2cc(/C=C3\C(=O)Nc4ccccc43)[nH]n2)cc(OC)c1OC
no (0)

Lab log entry: CCCCCCCCCCCCCC[n+]1ccc(C(N)=O)cc1 — outcome as called in the assay?
no (0)

# outcome recorded in this test, key = Nc1c(C(=O)Nc2ccccc2)sc2nc3c(cc12)CCCC3
no (0)

Could you kindly confirm the outcome this assay logged for Nc1c(C(=O)Nc2cccc(F)c2)sc2nc3c(cc12)C(=O)CCC3 ?
no (0)

Hello, I am checking results. What call was entered for CCCCCCCCCCCCCCCC(=O)OC1[C@@H](OC(=O)CCCCCCCCCCCCCCC)[C@@H](C(=O)N[C@@H](CCCCN)C(=O)OC)O[C@H]1n1cnc2c(=O)[nH]c(NC(=O)C(C)C)nc21 (stereo partly specified) ?
no (0)

Test call, this compound: CN(C)C=Nc1cc(Cl)ccc1Cl
no (0)

Kindly provide the recorded test outcome for the following compound: COc1cc(/C=C/C(=O)c2ccc(Cl)cc2)ccc1OS(=O)(=O)c1ccc(C)cc1
no (0)

Outcome logged for COc1ccc(-c2nc3ccccn3c2-c2nnc(-c3cc(OC)c(OC)c(OC)c3)o2)cc1 in this assay:
no (0)

Which outcome did this test record for the compound COc1ccc(/C=C/C(=O)Nc2ccc(-c3nc4ccc(F)cc4s3)cc2)cc1 ?
no (0)

Outcome logged for COC(=O)[C@@H]1[C@H](O)[C@H](C)[C@H](O)[C@@](C)(O)/C=C\C=C(C)C(=O)Nc2c(C)c(OC(C)=O)c3c(c2O)C(=O)C(C)=C2OCOC(=C23)C(C)=C[C@@](C)(O)[C@H](O)[C@@H](C)[C@H]1OC(C)=O in this assay:
no (0)

Lab log entry: c1ccc(CO[C@H]2CO[C@H]3[C@@H]2OC[C@H]3OCc2ccccc2)cc1 — outcome as called in the assay?
no (0)

Can you look up the reported call for CCN(CC)Cc1cc(Nc2ccnc3cc(Cl)ccc23)ccc1OC for me?
no (0)

Recorded test call requested for CN(C)CC(O)c1ccc2cc(Br)c3ccccc3c2c1 (stereo unspecified)
no (0)

Outcome? COc1cc(Cc2cc(-c3ccc(Cl)cc3)n[nH]c2=O)ccc1O
no (0)

Please share the test call associated with Nc1nccc(Nc2ccccc2)n1 .
no (0)

Field: outcome | Entry: Cn1c([N+](=O)[O-])cnc1/C=C1\Oc2ccc(Cl)cc2C1=O
yes (1)

In this assay, the call recorded for COC(=O)c1ccc(=O)oc1 was what?
no (0)

Could you kindly confirm the outcome this assay logged for O=C1/C(=C\c2ccccc2)CN(C(=O)c2ccccc2F)C/C1=C\c1ccccc1 ?
no (0)

Record request — test call for COc1cc(-c2cc(C(=O)N3CCN(C(=O)c4ccccc4NCc4cccs4)CC3)nc3cc(-c4ccccc4)nn23)cc(OC)c1OC
no (0)

Returns: the outcome recorded for N#Cc1ncc(-c2cc(F)c(F)c(F)c2)c(NC2CCCCCC2)n1 in this assay.
no (0)

// param item: NC(=O)CC1(c2ccccc2)CCCCC1 ; yields the recorded call
no (0)

What classification did O=S(=O)(Nc1ccccn1)c1ccc(N=Nc2ccc(O)c3ncccc23)cc1 end up with in this test?
no (0)

Field: outcome | Entry: CCN(CC)CCSCCCNc1c2ccc(Cl)cc2nc2ccc(OC)cc12
yes (1)

Any idea what this test logged for O=c1cc(-c2ccccc2)[nH]n1-c1nc2ccccc2[nH]1 ?
no (0)

Hi team, can someone confirm the assay call for O=C1/C(=C\c2ccc(Br)cc2)CN(C(=O)c2ccccc2F)C/C1=C\c1ccc(Br)cc1 ?
no (0)

Each compound tested received a call. Report the one for COc1cc(-c2cc(-c3cc4c([nH]c5ccccc54)c(-c4cc(OC)c(OC)c(OC)c4)n3)cc(-c3ccccc3)n2)cc(OC)c1OC .
no (0)

Each compound tested received a call. Report the one for COc1cccc(NC(=O)c2sc3nc4c(cc3c2N)C(O)CCC4)c1 (stereo unspecified) .
yes (1)

Hi, do you know how Cc1ccc(C(=O)N2C/C(=C/c3ccccc3)C(=O)/C(=C/c3ccccc3)C2)cc1 came out in this test?
no (0)

Hi, do you know how COc1ccc(-c2nsc3c2NC(=O)CC3c2ccc(F)cc2)cc1 (stereo unspecified) came out in this test?
yes (1)

So what was the verdict on NC(=O)SCC(=O)Nc1ccc(S(N)(=O)=O)cc1 in this test?
no (0)

// outcome(item) with item = Oc1[nH]c2ccc(Cl)cc2c1/C=c1/ccc2c(c1)N=C(c1cccs1)N=2
no (0)

Values were extracted from PubChem BioAssay (NCI).
